Values compiled from paper PMC9482650.

molecular target: MAGI2_6, Q86UL8; assay: holdup assay; parameters: key: below the threshold = too weak to quantify, mostly under pKd 3.1 to 4; conditions: plain residues with an end cap or a label only (N-terminal biotin on a linker: ado-ado)
Sequence (Q86UL8 1141-1229): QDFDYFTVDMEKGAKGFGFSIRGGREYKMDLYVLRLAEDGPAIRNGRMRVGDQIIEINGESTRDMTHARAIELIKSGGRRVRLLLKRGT
measured_attribute: pKd

Here are 4 binders together with their reported answers.
binder | pKd
AKADAQESRL [PLCB2, Q00722] | below the threshold
NISARRFTLC [FAM167B, Q9BTA0] | below the threshold
DFKHTKSFII [JAM2, P57087] | below the threshold
VISSDDLTEL [CAPN6, Q9Y6Q1] | 3.59

So for TKDKVQETQI [LRRC4, Q9HBW1] , the logged pKd turned out to be 3.97

Sample KKTPVSRSHL [SLC22A3, O75751] ; pKd observed: below the threshold

The reported value for EPAKETTTNV [SLC2A3, P11169] in terms of pKd is 3.97

Quick note, pKd for EFKQTSSFLV [JAM1, Q9Y624] landed at below the threshold

So for LLQEEWETVM [PTH1R, Q03431] , the logged pKd turned out to be 3.75

pKd in this record for LVEEEEPMNL [HDAC7, Q8WUI4] : below the threshold

GET /value?item= IKLETKKTKL [SLC15A2, Q16348] &field=pKd returns below the threshold

Entry PLATCDETSI [SEMA4F, O95754] — recorded pKd = 3.87
